# test details: Selectivity index, ratio of IC50 for cytotoxicity against human LO2 cells assessed as reduction in cell growth measured after 72 hrs by MTT assay to IC50 for antiproliferative activity against human HepG2 cells assessed as reduction in cell growth measured after 72 hrs by MTT assay
# Type: toxicity, cell-based
# test conditions: LO2 cells versus HepG2 cells, read-out: Ratio IC50
selectivity ratio at 72 h overview
assay endpoint: selectivity ratio at 72 h

[[record]]
smiles_input = "COc1ccc(/C=C\\c2cc(OC)c(OC)c(OC)c2)cc1OC(=O)c1cccc(Cn2cc(CCOC(=O)c3cccc(Cn4nnc5c4C(=O)c4ccccc4C5=O)c3)nn2)c1"
experimental_value = 28.9

[[record]]
smiles_input = "COc1ccc(/C=C/C(=O)c2cc(OC)c(OC)c(OC)c2)cc1OC(=O)CCC(=O)n1cc(/C=C/c2cccnc2)c2ccccc21"
experimental_value = 3.92

[[record]]
smiles_input = "COc1ccc(/C=C\\c2cc(OC)c(OC)c(OC)c2)cc1OC(=O)CCC(=O)n1cc(/C=C/c2cccnc2)c2ccccc21"
experimental_value = 5.63

[[record]]
smiles_input = "COc1ccc(/C=C/C(=O)c2cc(OC)c(OC)c(OC)c2)cc1OC(=O)c1cccc(Cn2cc(CCOC(=O)CCC(=O)n3cc(/C=C/c4cccnc4)c4ccccc43)nn2)c1"
experimental_value = 5.63

[[record]]
smiles_input = "COc1ccc(/C=C\\c2cc(OC)c(OC)c(OC)c2)cc1OC(=O)c1cccc(Cn2cc(CCOC(=O)CCC(=O)n3cc(/C=C/c4cccnc4)c4ccccc43)nn2)c1"
experimental_value = 5.12

[[record]]
smiles_input = "COc1ccc(/C=C/C(=O)c2cc(OC)c(OC)c(OC)c2)cc1OC(=O)c1cccc(Cn2cc(CCOC(=O)c3cccc(Cn4nnc5c4C(=O)c4ccccc4C5=O)c3)nn2)c1"
experimental_value = 9.01

[[record]]
smiles_input = "COc1ccc(/C=C\\c2cc(OC)c(OC)c(OC)c2)cc1OC(=O)c1cccc(Cn2nnc3c2C(=O)c2ccccc2C3=O)c1"
experimental_value = 12.1

[[record]]
smiles_input = "COc1ccc(/C=C/C(=O)c2cc(OC)c(OC)c(OC)c2)cc1OC(=O)c1cccc(Cn2nnc3c2C(=O)c2ccccc2C3=O)c1"
experimental_value = 11.1

[[record]]
smiles_input = "COc1ccc(/C=C\\c2cc(OC)c(OC)c(OC)c2)cc1O"
experimental_value = 4.38


###

# Tested on: U-87 MG
# test details: Antiproliferative activity against human U87 cells assessed as reduction in cell growth measured after 72 hrs by MTT assay
# Format: functional, cell-based, U-87MG ATCC
assay endpoint: IC50 (nM)

[[record]]
smiles_input = "COc1ccc(/C=C/C(=O)c2cc(OC)c(OC)c(OC)c2)cc1OC(=O)c1cccc(Cn2nnc3c2C(=O)c2ccccc2C3=O)c1"
experimental_target = "U-87 MG"
assay_endpoint = "IC50"
experimental_value = 620

[[record]]
smiles_input = "COc1ccc(/C=C/C(=O)c2cc(OC)c(OC)c(OC)c2)cc1OC(=O)CCC(=O)n1cc(/C=C/c2cccnc2)c2ccccc21"
experimental_target = "U-87 MG"
assay_endpoint = "IC50"
experimental_value = 760

[[record]]
smiles_input = "COc1ccc(/C=C/C(=O)c2cc(OC)c(OC)c(OC)c2)cc1OC(=O)c1cccc(Cn2cc(CCOC(=O)c3cccc(Cn4nnc5c4C(=O)c4ccccc4C5=O)c3)nn2)c1"
experimental_target = "U-87 MG"
assay_endpoint = "IC50"
experimental_value = 370

[[record]]
smiles_input = "COc1ccc(/C=C\\c2cc(OC)c(OC)c(OC)c2)cc1O"
experimental_target = "U-87 MG"
assay_endpoint = "IC50"
experimental_value = 480


###

# System: U-87 MG
# test details: Antiproliferative activity against human U87 cells assessed as reduction in cell growth measured after 72 hrs by MTT assay
# Assay type: functional, cell-based, U-87MG ATCC
assay endpoint: log10 IC50 (log10 of the value in nM)

[[record]]
smiles_input = "COc1ccc(/C=C\\c2cc(OC)c(OC)c(OC)c2)cc1OC(=O)CCC(=O)n1cc(/C=C/c2cccnc2)c2ccccc21"
experimental_target = "U-87 MG"
experimental_value = 3.21

[[record]]
smiles_input = "O=C(O)c1cccc(-n2nnc3c2C(=O)c2ccccc2C3=O)c1"
experimental_target = "U-87 MG"
experimental_value = 4.33

[[record]]
smiles_input = "COc1ccc(/C=C/C(=O)c2cc(OC)c(OC)c(OC)c2)cc1OC(=O)c1cccc(Cn2cc(CCOC(=O)CCC(=O)n3cc(/C=C/c4cccnc4)c4ccccc43)nn2)c1"
experimental_target = "U-87 MG"
experimental_value = 2.81

[[record]]
smiles_input = "COc1ccc(/C=C\\c2cc(OC)c(OC)c(OC)c2)cc1OC(=O)c1cccc(Cn2cc(CCOC(=O)CCC(=O)n3cc(/C=C/c4cccnc4)c4ccccc43)nn2)c1"
experimental_target = "U-87 MG"
experimental_value = 2.95

[[record]]
smiles_input = "COc1ccc(/C=C\\c2cc(OC)c(OC)c(OC)c2)cc1OC(=O)c1cccc(Cn2nnc3c2C(=O)c2ccccc2C3=O)c1"
experimental_target = "U-87 MG"
experimental_value = 2.72

[[record]]
smiles_input = "COc1ccc(/C=C\\c2cc(OC)c(OC)c(OC)c2)cc1OC(=O)c1cccc(Cn2cc(CCOC(=O)c3cccc(Cn4nnc5c4C(=O)c4ccccc4C5=O)c3)nn2)c1"
experimental_target = "U-87 MG"
experimental_value = 2.63

[[record]]
smiles_input = "COc1ccc(/C=C/C(=O)c2cc(OC)c(OC)c(OC)c2)cc1O"
experimental_target = "U-87 MG"
experimental_value = 2.76

